Target: Carbon storage regulator homolog RsmA (Pseudomonas aeruginosa)
Assay: Binding affinity towards Pseudomonas aeruginosa RsmA measured by fluorescence polarization assay
Where a SMILES comes first, the peptide text is derived from it. Bridges are numbered along the chain shown (N, C = ends). Triazole bridges read from a SMILES are 1,4-linked. [ ]: non-standard residue; d: D form. Ala(indol-2-yl) = N[C@@H](Cc1cc2ccccc2[nH]1)C(=O)O; Dap(N3) = [N-]=[N+]=NC[C@H](N)C(=O)O; Pra = C#CC[C@H](N)C(=O)O
MEASURED PROPERTY: IC50 (µM)
Numbers only, in µM.

CC(=O)N[C@H](C(=O)N[C@H]1CCn2nncc2C[C@@H](C(=O)N[C@@H](Cc2c[nH]c3ccccc23)C(N)=O)NC(=O)[C@H](CC(C)C)NC(=O)[C@H](CCC(=O)O)NC(=O)[C@H](CO)NC1=O)C(C)C; 37
CC(=O)N[C@H](C(=O)N[C@H]1CSSC[C@@H](C(=O)N[C@@H](Cc2cc3ccccc3[nH]2)C(N)=O)NC(=O)[C@H](CC(C)C)NC(=O)[C@H](CCC(=O)O)NC(=O)[C@H](CO)NC1=O)C(C)C (Ac-VCSELC[Ala(indol-2-yl)]-NH2; disulfide 2-6); 272

Provide the reported IC50 of each entry below, same order.
1. CC(=O)N[C@H](C(=O)N[C@H]1Cn2cc(nn2)C[C@@H](C(=O)N[C@@H](Cc2c[nH]c3ccccc23)C(N)=O)NC(=O)[C@H](CC(C)C)NC(=O)[C@H](CCC(=O)O)NC(=O)[C@H](CO)NC1=O)C(C)C (Ac-V[Dap(N3)]SEL[Pra]W-NH2; triazole 2-6)
2. CC(=O)N[C@H](C(=O)N[C@H]1Cc2cn(nn2)C[C@@H](C(=O)N[C@@H](Cc2c[nH]c3ccccc23)C(N)=O)NC(=O)[C@H](CC(C)C)NC(=O)[C@H](CCC(=O)O)NC(=O)[C@H](CO)NC1=O)C(C)C (Ac-V[Pra]SEL[Dap(N3)]W-NH2; triazole 2-6)

22.8
20

---

For each of the compounds below, state its IC50.
Target: Carbon storage regulator homolog RsmA (Pseudomonas aeruginosa)
Assay: Binding affinity towards Pseudomonas aeruginosa RsmA measured by fluorescence polarization assay
Where a SMILES comes first, the peptide text is derived from it. Bridges are numbered along the chain shown (N, C = ends). Triazole bridges read from a SMILES are 1,4-linked. [ ]: non-standard residue; d: D form. Aha = [N-]=[N+]=NCC[C@H](N)C(=O)O; Pra = C#CC[C@H](N)C(=O)O
Numbers only, in µM.

CC(=O)N[C@H](C(=O)N[C@H]1Cc2cn(nn2)CC[C@@H](C(=O)N[C@@H](Cc2c[nH]c3ccccc23)C(N)=O)NC(=O)[C@H](CC(C)C)NC(=O)[C@H](CCC(=O)O)NC(=O)[C@H](CO)NC1=O)C(C)C (Ac-V[Pra]SEL[Aha]W-NH2; triazole 2-6); 30.2

Could you tell me which IC50 is on file for `CC(=O)N[C@H](C(=O)N[C@H]1Cc2cnnn2CC[C@@H](C(=O)N[C@@H](Cc2c[nH]c3ccccc23)C(N)=O)NC(=O)[C@H](CC(C)C)NC(=O)[C@H](CCC(=O)O)NC(=O)[C@H](CO)NC1=O)C(C)C` ?
44.4
